Test system: L1210 leukemia ip in BDF1 mice, survival T/C
Experiment: NCI In Vivo Anticancer Drug Screen. Data for tumor model L1210 Leukemia (intraperitoneal) in B6D2F1 (BDF1) mice
Settings: endpoint: mean survival time; dose: 100.0 mg/kg/injection; schedule: Q04DX003 (ip); vehicle: other; higher = longer survival
Toxic doses and inconclusive results are not listed.
Quantity name: T/C

compound=O=C(O)c1cccc(C2CC2)c1 readout_value="97 % of control"
compound=Cc1nnc(NC(=O)C(Cl)Cl)s1 readout_value="95 % of control"
compound=CCC1(C)CC(=O)N(C/C=C(\C)CCC(=O)O)C(=O)C1 readout_value="89 % of control"
compound=O=C(O)CC[S-].[Ag+] readout_value="89 % of control"
compound="CCCCCCCCCCCCCCCCCC(=O)OCCC(C)CCCC(C)C (centres undefined)" readout_value="96 % of control"
compound=NOCc1ccsn1 readout_value="102 % of control"
compound="COc1ccc2c(c1)C(Br)N(S(=O)(=O)c1ccc(C)cc1)CCC2=O (centres undefined)" readout_value="92 % of control"
compound="O=C(O)C(Cc1ccccc1)NS(=O)(=O)Cc1ccccc1 (centres undefined)" readout_value="96 % of control"
compound=COc1ccc2c(c1)CCCN2CCC#N readout_value="92 % of control"

Measured values drawn from PubChem BioAssay AID248 for this set.
